- target_or_test_system: human GPR119 (Homo sapiens (Human))
- test_description: AlphaScreen cAMP assay in Min-6/hGPR119 cells (GPR119 activation, intracellular cAMP)
- measurement_conditions: MIN6 cells stably transfected with human GPR119; 45 minutes' incubation at RT; AlphaScreen cAMP Assay Kit
reported_metric: EC50 (nM)

Use the examples below as a reference point.
O=C1CCC(c2ccc3nc(-c4ccco4)oc3c2)=NN1: 1320
CCC1CC(=O)NN=C1c1ccc2nc(-c3ccc(OC[C@@H]4CCCN4)cc3)oc2c1 (stereo partly drawn): 2950
CCCC1CC(c2ccc3nc(-c4ccccc4)oc3c2)=NNC1=O (stereo not drawn): 834
O=C1CCC(c2ccc3nc(-c4cccs4)oc3c2)=NN1: 967
CC1CC(=O)NN=C1c1ccc2nc(-c3cccc(Cl)c3)oc2c1 (stereo not drawn): 260

I: CC[C@@H]1OC(=O)NN=C1N1CCc2nc(-c3ccccc3)oc2C1
II: CC[C@@H]1C(c2ccc3nc(-c4ccc(OC(C)C)cc4)oc3c2)=NNC(=O)[C@@H]1C (relative stereo)
III: CC1CC(=O)NN=C1c1ccc2nc(-c3ccco3)oc2c1 (stereo not drawn)
Input line: rank_up(items): orders items by reported EC50 in ascending numerical order. Form entry: labels listed in requested order.
Output line: III, I, II
(III: 346 nM, I: 578 nM, II: 3840 nM)

* * *

- target_or_test_system: human GPR119 (Homo sapiens (Human), UniProt Q8TDV5)
- Sequence (Q8TDV5 whole entry): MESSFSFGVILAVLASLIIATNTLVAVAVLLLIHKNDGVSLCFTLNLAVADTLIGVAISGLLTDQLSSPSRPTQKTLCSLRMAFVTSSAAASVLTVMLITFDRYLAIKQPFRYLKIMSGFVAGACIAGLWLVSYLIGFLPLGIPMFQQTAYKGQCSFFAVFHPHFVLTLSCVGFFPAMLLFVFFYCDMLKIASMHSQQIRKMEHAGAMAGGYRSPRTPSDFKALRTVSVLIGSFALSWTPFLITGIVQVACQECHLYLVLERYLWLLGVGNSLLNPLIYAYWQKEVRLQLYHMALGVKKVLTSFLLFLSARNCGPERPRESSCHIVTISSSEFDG
- test_description: AlphaScreen cAMP assay in Min-6/hGPR119 cells (GPR119 activation, intracellular cAMP)
- measurement_conditions: MIN6 cells stably transfected with human GPR119; 45 minutes' incubation at RT; AlphaScreen cAMP Assay Kit
Where a name gives a salt, the structure may show the parent alone.
reported_metric: EC50 (nM)

CCC1CC(=O)NN=C1c1ccc2nc(-c3ccc(OCC(C)(C)N4CCCC4)cc3)oc2c1 (stereo not drawn) [Example 229]: 398
CCC1CC(=O)NN=C1c1ccc2nc(-c3ccc(OC[C@H]4CCCN4C(=O)OC(C)(C)C)cc3)oc2c1 (stereo partly drawn) [Example 227]: 52
CCC1CC(=O)NN=C1c1ccc2nc(-c3cccc(OCCN4C(C)(C)CCCC4(C)C)c3)oc2c1 (stereo not drawn) [Example 151]: 116
O=C1NN=C(c2ccc3nc(-c4ccccc4F)oc3c2)C2CC12 (stereo not drawn) [Example 20]: 157
CCC1CC(=O)NN=C1c1ccc2nc(-c3cccc(OCc4ccncc4)c3)oc2c1 (stereo not drawn) [Example 150]: 1260
CCC1CC(=O)NN=C1c1ccc2nc(-c3ccc(OCCN4CCSCC4)cc3)oc2c1 (stereo not drawn) [Example 247]: 62
CC1CC(=O)NN=C1c1ccc2nc(N3CCCCC3)oc2c1 (stereo not drawn) [Example 115]: 1130
CCC1CC(=O)NN=C1c1ccc2nc(-c3ccc(OC(C)CN4CCCC4)cc3)oc2c1 (stereo not drawn) [Example 210]: 590
CC1CC(=O)NN=C1c1ccc2nc(-c3ccc(C#N)cc3)oc2c1 (stereo not drawn) [Example 122]: 4000
Cc1cc(=O)[nH]nc1-c1ccc2nc(-c3ccc(C(=O)O)cc3)oc2c1 [Example 255]: 7240

P: COc1cccc(-c2nc3ccc(C4=NNC(=O)CC4C)cc3o2)c1 (stereo not drawn) [Example 85]
Q: CCC1CC(=O)NN=C1c1ccc2nc(-c3cccc(OCc4ccccc4)c3)oc2c1 (stereo not drawn) [Example 35]
R: CCCC1CC(=O)NN=C1c1ccc2nc(-c3ccccc3)oc2c1 (stereo not drawn) [Example 8]
S: CC1CC(=O)NN=C1c1ccc2nc(-c3cccc(OCC4CCNCC4)c3)oc2c1 (stereo not drawn) [Example 73, hydrochloride]
Input line: rank_up(items): orders items by reported EC50 in ascending numerical order. Form entry: labels listed in requested order.
Output line: Q, P, R, S
(Q: 148 nM, P: 334 nM, R: 874 nM, S: 6770 nM)

P: CC[C@H]1C(c2ccc3nc(-c4ccc(OC(C)C)cc4)oc3c2)=NNC(=O)[C@@H]1C (relative stereo) [Example 178]
Q: CCC[C@H]1C(=O)NN=C(c2ccc3nc(-c4ccc(C)s4)oc3c2)[C@@H]1C (relative stereo) [Example 184]
Input line: Larger number for EC50: P , or Q ? Select an item and report its label.
Output line: P

a: CC1CC(=O)NN=C1c1ccc2nc(-c3ccccc3)oc2c1 (stereo not drawn) [Example 82]
b: CCC1CC(=O)NN=C1c1ccc2nc(-c3ccc(OCCN(C)C)cc3)oc2c1 (stereo not drawn) [Example 55]
c: CCC[C@H]1C(=O)NN=C(c2ccc3nc(-c4cccn4C)oc3c2)[C@@H]1C (relative stereo) [Example 252]
d: CCC1CC(=O)NN=C1c1ccc2nc(-c3ccc(OCCN4C(C)(C)CCCC4(C)C)cc3)oc2c1 (stereo not drawn) [Example 58]
Input line: rank_up(items): orders items by reported EC50 in ascending numerical order. Form entry: labels listed in requested order.
Output line: d, c, a, b
(d: 76 nM, c: 110 nM, a: 189 nM, b: 486 nM)

Entry source: patent US8772323B2
